- Tested on: Kochia (Kochia scoparia)
- assayDetails: Test A postemergence
- Format: in vivo
- conditionDescription: Bassia scoparia, post-emergence, 240 h, 125 g ai/ha, postemergence, visual injury vs untreated controls after approx. 10 d; 0 = no effect, 100 = complete control; read-out: Kochia plant response rating (0 to 100 scale)
Here the recorded pest or weed control at 125 g/ha is given for each entry.

# compoundSmiles, pest or weed control at 125 g/ha
data = [
    ("CN1C[C@H](c2ccc(C(F)F)cc2)[C@@H](C(=O)Nc2ccccc2S(C)(=O)=O)C1=O", "0%"),
    ("COc1cc(C(F)(F)F)ccc1[C@H]1CN(C)C(=O)[C@@H]1C(=O)Nc1cccc(F)c1C", "0%"),
    ("CSc1ccccc1NC(=O)[C@H]1C(=O)NC[C@@H]1c1ccc2c(c1)OCO2", "0%"),
    ("CSc1ccccc1NC(=O)[C@H]1C(=O)N(C)C[C@@H]1c1cccc(C(F)(F)F)c1", "40%"),
    ("O=C1NC[C@H](c2nccs2)[C@H]1C(=O)Nc1cccc(F)c1F", "0%"),
    ("CCc1ccc([C@H]2CNC(=O)[C@@H]2C(=O)Nc2cccc(F)c2C)cc1", "0%"),
    ("Cc1ccc([C@H]2CN(C)C(=O)[C@@H]2C(=O)Nc2cccc(F)c2C#N)cc1", "20%"),
    ("N#Cc1cc([C@H]2CNC(=O)[C@]2(O)C(=O)Nc2ccccc2F)ccc1F", "0%"),
]
